B1: library; numbered along this chain (parent)
chain: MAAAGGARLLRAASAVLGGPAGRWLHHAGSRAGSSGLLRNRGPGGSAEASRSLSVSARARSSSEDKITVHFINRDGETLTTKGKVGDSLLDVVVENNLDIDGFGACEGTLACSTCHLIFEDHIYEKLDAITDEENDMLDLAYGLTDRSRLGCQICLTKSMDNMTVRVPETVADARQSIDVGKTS

# Variants of: B1
# assay.comment: scaled log2 fold change in cell abundance, elesclomol vs control (0 = silent mean, 1 = nonsense mean) (scaled log2 ratio); higher = higher viability under elesclomol (loss of FDX1 cuproptosis function);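 further: variant abundance is its share of total variant reads in each endpoint sample, from next-generation sequencing of the integrated ORF PCR-amplified out of genomic DNA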
# experimental.parameters: with HEK293T FDX1 KO; elesclomol 40 nM; glucose 10 mM; 11 days
assay.readout: scaled log2 fold change

- R11N: 0.131
- I100L: 0.198
- I67R: 0.363
- N40I: -0.704
- D75I: -0.38
- R74M: 0.445
- R147E: -0.255
- L37T: 0.567
- I130D: 0.0795
- H116M: 0.245
- D99R: 0.945
- L138T: 0.287
- V94P: 0.378
- A47R: 1.12
- E77Q: 0.00586
- G108T: 0.358
- G104E: 0.941
